# Study target: Metabotropic glutamate receptor 5 (Homo sapiens, UniProt P41594)
# Sequence (P41594 whole entry): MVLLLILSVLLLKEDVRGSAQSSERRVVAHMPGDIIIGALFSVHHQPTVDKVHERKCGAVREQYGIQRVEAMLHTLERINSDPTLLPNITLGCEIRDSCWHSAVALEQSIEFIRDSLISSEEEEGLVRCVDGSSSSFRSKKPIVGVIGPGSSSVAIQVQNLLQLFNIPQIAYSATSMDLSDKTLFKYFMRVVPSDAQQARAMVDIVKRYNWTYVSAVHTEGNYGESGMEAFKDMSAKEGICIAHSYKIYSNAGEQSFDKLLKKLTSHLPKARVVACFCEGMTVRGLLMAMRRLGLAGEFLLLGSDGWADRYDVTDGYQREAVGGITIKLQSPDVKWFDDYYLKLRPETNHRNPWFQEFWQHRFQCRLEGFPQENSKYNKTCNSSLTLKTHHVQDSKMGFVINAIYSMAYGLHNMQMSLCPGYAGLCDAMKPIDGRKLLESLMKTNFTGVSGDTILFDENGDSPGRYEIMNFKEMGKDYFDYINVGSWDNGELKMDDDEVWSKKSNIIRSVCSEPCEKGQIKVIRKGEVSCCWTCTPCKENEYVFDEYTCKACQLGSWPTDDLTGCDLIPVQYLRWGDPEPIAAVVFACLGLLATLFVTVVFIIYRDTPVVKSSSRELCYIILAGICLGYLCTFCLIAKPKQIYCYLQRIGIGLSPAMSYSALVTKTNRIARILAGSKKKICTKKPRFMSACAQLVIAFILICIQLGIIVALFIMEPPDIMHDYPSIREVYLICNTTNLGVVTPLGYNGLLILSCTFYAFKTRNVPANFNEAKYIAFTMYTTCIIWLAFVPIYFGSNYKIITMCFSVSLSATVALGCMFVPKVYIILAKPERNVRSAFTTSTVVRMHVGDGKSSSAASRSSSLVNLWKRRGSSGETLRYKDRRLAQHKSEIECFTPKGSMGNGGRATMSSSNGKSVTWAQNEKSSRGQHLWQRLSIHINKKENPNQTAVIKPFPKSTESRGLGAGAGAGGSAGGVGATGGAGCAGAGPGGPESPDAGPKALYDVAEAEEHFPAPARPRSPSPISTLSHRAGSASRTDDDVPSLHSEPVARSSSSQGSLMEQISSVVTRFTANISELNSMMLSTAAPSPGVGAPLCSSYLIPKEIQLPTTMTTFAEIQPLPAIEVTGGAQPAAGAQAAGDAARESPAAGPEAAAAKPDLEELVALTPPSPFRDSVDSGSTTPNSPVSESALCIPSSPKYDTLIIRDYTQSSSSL
# Method description: Inhibition of glutamate-induced calcium influx in human mGluR5d by FLIPR
# Type: functional
# Settings: read-out: IC50
pIC50: −log10 of the molar value.
Reported endpoint: pIC50

Example cases with answers are listed next.
Compound	Result number
CN1CC(=O)N=C1NC(=O)c1cccc(Cl)c1	5.64
CN1CCC/C1=N\C(=O)Nc1cccc(Cl)c1	6.21
CCCCN1CC(=O)N=C1NC(=O)Nc1cccc(Cl)c1	6.17
CC1C(=O)N=C(NC(=O)Nc2cccc(Cl)c2)N1C (stereo not given)	6.31
CCN1C(NC(=O)Nc2cccc(Cl)c2)=NC(=O)C1C (stereo not given)	6.39
CN1CC(=O)N=C1NC(=O)Nc1cccc(Br)c1	6.42
CN1CC(=O)N=C1NC(=O)Nc1cccc(Cl)c1 [FENOBAM ANHYDROUS]	6.48
Cc1cccc(NC(=O)NC2=NC(=O)C(c3ccccc3)N2C)c1 (stereo not given)	5.85
CN1CCS/C1=N\C(=O)Nc1cccc(Cl)c1	6.59
Cc1ccc(NC(=O)NC2=NC(=O)CN2C)nc1	5.51

I = O=C(NC1=NC(=O)C2CCCN12)Nc1cccc(Cl)c1 (stereo not given)
II = O=C(NC1=NC(=O)C2CCCN12)Nc1ccccc1 (stereo not given)
In the pair I and II , the larger recorded pIC50 belongs to which? Please identify the chosen entry by its label.
I
(I: 6.10, II: 5.38)

P = Cc1cccnc1NC(=O)NC1=NC(=O)CN1C
Q = CN1CC(=O)N/C1=N\C(=O)Nc1ccccc1
// compare measured pIC50 between P and Q ; output the lower one Please identify the chosen entry by its label.
Q
(Q: 5.31, P: 5.72)

I = CCN1CC(=O)N=C1NC(=O)Nc1cccc(Cl)c1
II = CN1CC(=O)N=C1NC(=O)Nc1cccc(C#N)c1
III = Cc1cccc(NC(=O)NC2=NC(=O)CN2C)c1
Rank order required: pIC50, descending. // ordering of labels required in reply
I, III, II

P = COc1cccc(NC(=O)NC2=NC(=O)CN2C)c1
Q = CN1CC(=O)N=C1NC(=O)Nc1cccs1
In the pair P and Q , the larger recorded pIC50 belongs to which? Please identify the chosen entry by its label.
P

====

# Study target: Metabotropic glutamate receptor 5 (Rattus norvegicus)
# Sequence (P31424 whole entry): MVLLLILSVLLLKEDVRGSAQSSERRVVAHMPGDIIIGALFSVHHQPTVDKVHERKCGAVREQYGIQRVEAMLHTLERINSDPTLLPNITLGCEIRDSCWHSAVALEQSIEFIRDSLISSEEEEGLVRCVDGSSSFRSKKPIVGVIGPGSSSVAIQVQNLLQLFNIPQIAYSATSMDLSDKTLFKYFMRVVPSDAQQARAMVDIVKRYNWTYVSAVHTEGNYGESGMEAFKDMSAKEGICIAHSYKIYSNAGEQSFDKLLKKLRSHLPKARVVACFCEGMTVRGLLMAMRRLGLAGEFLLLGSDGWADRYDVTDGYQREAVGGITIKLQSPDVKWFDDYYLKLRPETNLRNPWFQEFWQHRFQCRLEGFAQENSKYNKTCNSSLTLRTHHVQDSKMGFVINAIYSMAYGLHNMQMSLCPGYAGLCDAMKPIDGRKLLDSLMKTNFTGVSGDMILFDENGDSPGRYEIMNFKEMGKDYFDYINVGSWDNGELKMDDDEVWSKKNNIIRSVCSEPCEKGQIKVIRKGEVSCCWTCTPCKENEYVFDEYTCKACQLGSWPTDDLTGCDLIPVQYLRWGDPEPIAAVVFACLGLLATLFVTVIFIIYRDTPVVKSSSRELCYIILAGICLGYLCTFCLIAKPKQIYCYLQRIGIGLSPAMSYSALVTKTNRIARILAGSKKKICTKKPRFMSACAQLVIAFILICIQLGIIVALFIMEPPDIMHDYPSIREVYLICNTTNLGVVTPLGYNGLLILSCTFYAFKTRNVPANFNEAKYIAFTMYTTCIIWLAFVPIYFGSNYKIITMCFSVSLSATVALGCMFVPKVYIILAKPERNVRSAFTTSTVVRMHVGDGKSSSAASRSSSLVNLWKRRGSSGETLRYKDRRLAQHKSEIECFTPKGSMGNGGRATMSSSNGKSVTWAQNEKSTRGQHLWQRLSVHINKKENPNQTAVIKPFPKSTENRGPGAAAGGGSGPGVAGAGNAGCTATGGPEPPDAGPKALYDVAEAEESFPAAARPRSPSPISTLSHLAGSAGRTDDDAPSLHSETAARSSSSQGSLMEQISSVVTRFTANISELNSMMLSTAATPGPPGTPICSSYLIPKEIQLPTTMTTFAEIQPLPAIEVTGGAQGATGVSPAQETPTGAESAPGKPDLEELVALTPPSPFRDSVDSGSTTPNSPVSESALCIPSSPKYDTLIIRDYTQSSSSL
# Method description: Displacement of [3H]MPEP from mGluR5d in rat brain membrane
Reported endpoint: IC50 (nM)

A = CN1CC(=O)N=C1NC(=O)Nc1cccc(Cl)c1 [FENOBAM ANHYDROUS]
B = CCN1CC(=O)N=C1NC(=O)Nc1cccc(Cl)c1
C = CN1CCC/C1=N\C(=O)Nc1cccc(Cl)c1
D = CN1CCS/C1=N\C(=O)Nc1cccc(Cl)c1
Arrange by IC50, high to low. // ordering of labels required in reply
C, D, A, B

I = O=C(NC1=NC(=O)C2CCCN12)Nc1cccc(Cl)c1 (configuration not stated)
II = CCN1C(NC(=O)Nc2cccc(Cl)c2)=NC(=O)C1C (configuration not stated)
// compare measured IC50 between I and II ; output the lower one Please identify the chosen entry by its label.
II

1 = CCCCN1CC(=O)N=C1NC(=O)Nc1cccc(Cl)c1
2 = CN1CC(=O)N=C1NC(=O)Nc1cccc(C#N)c1
// compare measured IC50 between 1 and 2 ; output the lower one Please identify the chosen entry by its label.
1

====

# Study target: Metabotropic glutamate receptor 5 (Rattus norvegicus)
# Method description: Displacement of [3H]MPEP from mGluR5d in rat brain membrane
# Format: cell membranes
Reported endpoint: IC50

Example cases with answers are listed next.
Compound	Study target	IC50
CC1C(=O)N=C(NC(=O)Nc2cccc(Cl)c2)N1C (centres undefined)	Metabotropic glutamate receptor 5 (Rattus norvegicus)	1.3 µM
Cn1ccnc1NC(=O)Nc1cccc(Cl)c1	Metabotropic glutamate receptor 5 (Rattus norvegicus)	> 10 µM
Cc1cccc(NC(=O)NC2=NC(=O)C(c3ccccc3)N2C)c1 (centres undefined)	Metabotropic glutamate receptor 5 (Rattus norvegicus)	> 10 µM

Let us examine a further case.
Specify IC50 for CN1C(=O)CN=C1NC(=O)Nc1cccc(Cl)c1 and stop.
> 10 µM
